Origin of measurements: patent US9873702B2

- Test Target: dopamine transporter (DAT) (Rattus norvegicus, UniProt P23977)
- Sequence (P23977 whole entry): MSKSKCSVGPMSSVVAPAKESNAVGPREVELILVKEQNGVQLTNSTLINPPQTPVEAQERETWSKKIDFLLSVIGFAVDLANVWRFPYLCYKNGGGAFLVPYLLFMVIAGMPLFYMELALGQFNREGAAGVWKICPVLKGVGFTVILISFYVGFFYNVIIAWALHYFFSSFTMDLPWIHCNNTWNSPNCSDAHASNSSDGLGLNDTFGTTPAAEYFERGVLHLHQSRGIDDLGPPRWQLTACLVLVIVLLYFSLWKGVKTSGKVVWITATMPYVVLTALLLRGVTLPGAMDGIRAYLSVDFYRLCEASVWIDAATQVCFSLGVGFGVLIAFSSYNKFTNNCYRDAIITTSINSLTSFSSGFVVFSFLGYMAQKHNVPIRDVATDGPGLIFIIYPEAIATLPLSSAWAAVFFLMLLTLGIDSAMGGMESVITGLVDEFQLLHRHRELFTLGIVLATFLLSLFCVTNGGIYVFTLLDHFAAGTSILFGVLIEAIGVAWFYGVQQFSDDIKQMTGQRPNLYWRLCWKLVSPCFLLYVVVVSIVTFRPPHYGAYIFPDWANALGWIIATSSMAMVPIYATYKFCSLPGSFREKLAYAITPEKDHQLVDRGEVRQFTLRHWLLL
- Experiment Description: Dopamine reuptake ([^3H]dopamine uptake) inhibition in rat brain synaptosomes
- Stated Conditions: read-out: Emax for DAT Uptake Inhibition
Observable: Emax (%)
Please respond with the number in % and leave the unit unwritten.

[
  {
    "Molecule": "c1ccc(C(CNc2nc(-c3cnc4nccn4c3)nc3ccccc23)c2ccncc2)cc1 (centres unmarked) [compound 110]",
    "Observable": "Emax",
    "Assay Result": 64
  },
  {
    "Molecule": "CN(C)c1ncc(-c2nc(NCC(c3ccccc3)c3ccccc3)c3ccccc3n2)cn1 [compound 16]",
    "Observable": "Emax",
    "Assay Result": 73
  },
  {
    "Molecule": "c1ccc(C(CNc2nc(-c3ccc4ncnn4c3)nc3ccccc23)c2ccccc2)cc1 [compound 105]",
    "Observable": "Emax",
    "Assay Result": 63
  },
  {
    "Molecule": "c1ccc(C(CNc2nc(-c3ccc4nccn4c3)nc3ccccc23)c2ccccc2)cc1 [compound 55]",
    "Observable": "Emax",
    "Assay Result": 68
  },
  {
    "Molecule": "c1ccc(C(CNc2nc(-c3ccc4[nH]ccc4c3)nc3ccccc23)c2ccccc2)cc1 [compound 17]",
    "Observable": "Emax",
    "Assay Result": 74
  },
  {
    "Molecule": "Cc1cc2nccn2cc1-c1nc(NCC(c2ccccc2)c2ccncc2)c2ccccc2n1 (centres unmarked) [compound 151]",
    "Observable": "Emax",
    "Assay Result": 72
  }
]

Ask | For the molecule CN(C)c1ccc(-c2nc(NCC(c3ccccc3)c3ccccc3)c3ccccc3n2)cn1 [compound 69] , give its reported Emax.
Reply | 63

Ask | Tell me its Emax given CS(=O)(=O)Nc1ccc(-c2nc(NCC(c3ccccc3)c3ccccc3)c3ccccc3n2)cc1 [SRI-29577] as the entry.
Reply | 70

Ask | Specify Emax for c1ccc(C(CNc2nc(-c3cnc4nccn4c3)nc3ccccc23)c2ccccc2)cc1 [compound 89] and stop.
Reply | 68

Ask | Input CN(C)c1ccc(-c2nc(NCC(c3ccccc3)c3ccccc3)c3ccccc3n2)cc1 [SRI-29786] , output reported Emax.
Reply | 70

Ask | Specify measured Emax for Cc1cc2nccn2cc1-c1nc(NCC(c2ccccc2)c2ccccc2)c2ccccc2n1 [compound 118] .
Reply | 63
